- TARGET DESC: CRBN protein (Homo sapiens)
- RUN DESCRIPTION: Binding activity to E3 ubiquitin ligase CRBN (HTRF competitive binding kit, Thalidomide-Red)
- SETTINGS: competition with XL665-labeled thalidomide for GST-tagged CRBN protein, HTRF, 3 hours at room temperature; read-out: IC50
The threshold is 10 µM. Values of IC50 beneath it are tagged class 1; values meeting or exceeding it are tagged class 0.

Worked examples follow.
Criterion: IC50 strictly below 10 µM. Is it met by O=C1CC[C@H](NC(=O)c2cc3c(cc2F)C2(CCNCC2)CO3)C(=O)N1 ?
class 0

Criterion: IC50 strictly below 10 µM. Is it met by O=C1CC[C@H](NC(=O)c2cc3c(cc2F)CCC2(CCNCC2)O3)C(=O)N1 ?
class 0

Criterion: IC50 strictly below 10 µM. Is it met by O=C1CC[C@H](NC(=O)c2ccc3c(c2)OCC[C@H]2CNCCN32)C(=O)N1 ?
class 0

Criterion: IC50 strictly below 10 µM. Is it met by O=C1CCC(Nc2ccc3c(c2)OC2(CCNCC2)C3)C(=O)N1 (centres unmarked) ?
class 1

Criterion: IC50 strictly below 10 µM. Is it met by O=C1CCC(N2Cc3c(ccc4c3OCC43CCC4(CC3)CNC4)C2=O)C(=O)N1 (centres unmarked) ?
class 1

Criterion: IC50 strictly below 10 µM. Is it met by Cn1c(=O)n(C2CCC(=O)NC2=O)c2ccc3c(c21)OC[C@H]1CNCCN31 (stereo in doubt) [Compound D6] ?
class 1

Criterion: IC50 strictly below 10 µM. Is it met by O=C1CC[C@H](NC(=O)c2ccc3c(c2)OC[C@H]2CNCCN32)C(=O)N1 ?
class 0

Criterion: IC50 strictly below 10 µM. Is it met by Cn1c(=O)n(C2CCC(=O)NC2=O)c2ccc3c(c21)OC[C@H]1CNCCN31 (some centres unmarked) [Compound D7] ?
class 1

Criterion: IC50 strictly below 10 µM. Is it met by O=C1CCC(Nc2ccc3c(c2)OCC[C@H]2CNCCN32)C(=O)N1 (some centres unmarked) ?
class 1

Criterion: IC50 strictly below 10 µM. Is it met by O=C1CC[C@H](NC(=O)c2cc3c(cc2F)OCC32CCNCC2)C(=O)N1 ?
class 0

Further cases:
Criterion: IC50 strictly below 10 µM. Is it met by O=C1CC[C@H](NC(=O)c2c(F)ccc3c2OCC32CCNCC2)C(=O)N1 ?
class 0

Criterion: IC50 strictly below 10 µM. Is it met by O=C1CC[C@H](NC(=O)c2cc3c(cc2F)N2CCNC[C@@H]2CO3)C(=O)N1 ?
class 0

Criterion: IC50 strictly below 10 µM. Is it met by COc1cc2c(cc1C(=O)N[C@H]1CCC(=O)NC1=O)C1(CCNCC1)CO2 ?
class 0

Criterion: IC50 strictly below 10 µM. Is it met by CN(c1ccc2c(c1)OC[C@H]1CNCCN21)C1CCC(=O)NC1=O (some centres unmarked) ?
class 1

Criterion: IC50 strictly below 10 µM. Is it met by CN(c1ccc2c(c1)OCC21CCNCC1)C1CCC(=O)NC1=O (centres unmarked) ?
class 1

Criterion: IC50 strictly below 10 µM. Is it met by O=C1CCC(Nc2ccc3c(c2)C2(CCNCC2)CO3)C(=O)N1 (centres unmarked) ?
class 0
